As shown below, each of these compounds has a reported Compound recovery value.
- procedure-details: Drug level in lung of beagle dog treated with [14C]casopitant mesylate at 40 mg/kg/day, po administered as repeat dose measured after 24 hrs on day 14 by HPLC-MS/MS method relative to [14C]casopitant mesylate radioactivity
- Format: ADME, organism-based, Canis lupus familiaris
- Design: dosed compound name [14C]Casopitant, route oral
- condition-label: in vivo

# compound, uom, Compound recovery
records = [
    ("CC(=O)N1CCN([C@H]2CCN(C(=O)N(C)[C@H](C)c3cc(C(F)(F)F)cc(C(F)(F)F)c3)[C@@H](c3ccc(F)cc3C)C2)CC1=O", "%", 0.6),
    ("Cc1cc(F)ccc1[C@H]1C[C@@H](NCCN)CCN1C(=O)N(C)[C@H](C)c1cc(C(F)(F)F)cc(C(F)(F)F)c1", "%", 2.3),
    ("CC(=O)N1CCN([C@H]2CCN(C(=O)N(C)[C@H](C)c3cc(C(F)(F)F)cc(C(F)(F)F)c3)[C@@H](c3ccc(F)cc3C)C2)CC1O (some centres undefined)", "%", 1.9),
]
